Target: T1, hsEREG-His (mature human EREG-6His fusion protein) (human, UniProt O14944 30-108)
T1 sequence: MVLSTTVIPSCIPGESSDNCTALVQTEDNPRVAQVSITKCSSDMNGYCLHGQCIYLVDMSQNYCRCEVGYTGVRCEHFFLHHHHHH
Assay: cell-based or functional assay
Measurement kind: IC50 (read off the curve), growth ratio of EGFR_BAF cells with hsEREG-His 2.5 ng/mL

Solved cases (3 shown):
1. H206-G1d/L73-k (antibody, human IgG1, kappa, V domains shown) VH: QDQLVQSGAEVKNPGASVKVSCKASGFNIKDTYIQWVRQAPGQGLEWMGRIDPLRRQTKYREKFEGRVTITADTSTNTAYMELSSLRSEDTAVYYCVRSGREFDFWGQGTLVTVSS VL: DIQMTQSPSSLSASVGDRVTITCRASQDIHKYIAWYQQKPGQAPRLLIQYTSTLQPGVPSRFSGSGSGTDYTFTISSLQPEDIATYYCLQYEQLRTFGGGTKVEIKR	~0.8 µg/mL
2. H240-G1d/L73-k (antibody, human IgG1, kappa, V domains shown) VH: QDQLVQSGAEVKKPGASVKVSCKASGFNIKDTYIQWVRQAPGQGLEWMGRIDPLRKQTKYREKFEGRVTITADTSTNTAYMELSSLRSEDTAVYYCVRSGREFDYWGQGTLVTVSS VL: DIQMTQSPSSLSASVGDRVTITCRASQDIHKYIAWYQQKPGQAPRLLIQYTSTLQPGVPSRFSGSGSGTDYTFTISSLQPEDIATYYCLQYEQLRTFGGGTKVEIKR	~0.5 µg/mL
3. chimeric antibody EP27 (cH-G1/cL-k) (antibody, human IgG1, kappa, V domains shown, mouse EP27 variable regions with human IgG1 (G1) and kappa constant regions; also called chimeric EP27) VH: EDQLQQSGAELVKPGASVKLSCTASGFNIKDTYIQWVKLRPEQGLEWIGRIDPLNGNTKYVPKFQGKATITADTSSNTAYLQLSSLTSEDTAVYYCVRSGTLFDFWGQGTTLTVSS VL: DIQMTQSPSSLSASLGGKVTITCKASQDIHKYIAWYQHKPGKGPRLLIQYTSTLQPGIPSRFSGSGSGRDYSFSISNLEPEDIATYYCLQYDNLRTFGGGTKLEIKR	~0.7 µg/mL

Then there is this binder:
*Q* Recorded IC50 (read off the curve), growth ratio of EGFR_BAF cells with hsEREG-His 2.5 ng/mL of H240-G1d/L53-k (antibody, human IgG1, kappa, V domains shown) VH: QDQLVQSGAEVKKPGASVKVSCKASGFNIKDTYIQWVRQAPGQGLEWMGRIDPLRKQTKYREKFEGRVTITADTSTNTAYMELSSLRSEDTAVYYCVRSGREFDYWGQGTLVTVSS VL: DIQMTQSPSSLSASVGDRVTITCRASQDIHKYIAWYQQKPGQAPRLLIQYTSTLQPGVPSRFSGSGSGTDYTFTISSLQPEDIATYYCLQYDNLRTFGGGTKVEIKR , please.
*A* ~0.4 µg/mL
